Field: fraction ligated. Provide a value for each of the variants that follow.
B1: F1*; the commonest letter at each place (parent)
chain: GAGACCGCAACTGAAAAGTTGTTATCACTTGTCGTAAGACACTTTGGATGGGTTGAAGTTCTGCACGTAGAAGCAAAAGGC

# Variants of: B1
# measurement-notes: fraction ligated after 30 min (ligated reads / total reads); higher = more ligase activity
# condition-details: with F1*sub RNA substrate (template-directed ligation), 42 °C

QUERY: Returns the measured fraction ligated for the input variant. Input: T32C A56G
RESULT: 0.738

QUERY: Also check A27C T32G
RESULT: 0.78

QUERY: Also check A39G G46A
RESULT: 0.843

QUERY: Also check A36C C42A
RESULT: 0.852

QUERY: Also check G55C A57G
RESULT: 0.773

QUERY: Also check A24G G34A
RESULT: 0.763

QUERY: Also check "C26T"
RESULT: 0.836

QUERY: Also check C33A C40T
RESULT: 0.849

QUERY: Also check A24T G50C
RESULT: 0.295

QUERY: Also check "G51C"
RESULT: 0.812

QUERY: Also check T30C T49G
RESULT: 0.485

QUERY: Also check A36C G50T
RESULT: 0.746

QUERY: Also check T32C A36C
RESULT: 0.795

QUERY: Also check G47C T49A
RESULT: 0.0759

QUERY: Also check C26A T45G
RESULT: 0.0382

QUERY: Also check T35G G55A
RESULT: 0.819

QUERY: Also check A39G T45G
RESULT: 0.389

QUERY: Also check C26G T44G
RESULT: 0.776

QUERY: Also check G31C A57G
RESULT: 0.807

QUERY: Also check C28T C40T
RESULT: 0.796

QUERY: Also check T45A G50C
RESULT: 0.0158

QUERY: Also check "G47T"
RESULT: 0.37

QUERY: Also check T23C C28G
RESULT: 0.732

QUERY: Also check G31A T49C
RESULT: 0.136

QUERY: Also check "T53C"
RESULT: 0.849

QUERY: Also check A27C C40T
RESULT: 0.818

QUERY: Also check T49A A56C
RESULT: 0.102

QUERY: Also check C42A T49C
RESULT: 0.727

QUERY: Also check C40G G55C
RESULT: 0.659

QUERY: Also check C26G A41G
RESULT: 0.716

QUERY: Also check C42T G47T
RESULT: 0.408

QUERY: Also check C26A A41G
RESULT: 0.761

QUERY: Also check T23A A36T
RESULT: 0.838

QUERY: Also check T23C T45A
RESULT: 0.266

QUERY: Also check C33G A37T
RESULT: 0.853

QUERY: Also check C28A A57C
RESULT: 0.776

QUERY: Also check A24C A39T
RESULT: 0.197

QUERY: Also check A24G A48G
RESULT: 0.762

QUERY: Also check "A57C"
RESULT: 0.814

QUERY: Also check A48G A57G
RESULT: 0.803

QUERY: Also check T44C G47A
RESULT: 0.772

QUERY: Also check G31T A37G
RESULT: 0.792

QUERY: Also check G31C T45C
RESULT: 0.0406

QUERY: Also check G47C G50T
RESULT: 0.202

QUERY: Also check A41C G47A
RESULT: 0.228

QUERY: Also check T29C A57C
RESULT: 0.797

QUERY: Also check A37G A48C
RESULT: 0.763

QUERY: Also check G38C A48C
RESULT: 0.269

QUERY: Also check G55C A57T
RESULT: 0.632

QUERY: Also check C26G A56G
RESULT: 0.0248

QUERY: Also check A24T A48T
RESULT: 0.00859

QUERY: Also check T25C C42T
RESULT: 0.804

QUERY: Also check G34A C40T
RESULT: 0.81

QUERY: Also check A36C T45C
RESULT: 0.753

QUERY: Also check C42A T45G
RESULT: 0.282

QUERY: Also check A27C A39T
RESULT: 0.789

QUERY: Also check A24T A27G
RESULT: 0.748

QUERY: Also check T23C C33T
RESULT: 0.839

QUERY: Also check T44C T45C
RESULT: 0.747

QUERY: Also check C26A G55C
RESULT: 0.0379

QUERY: Also check T25G C26A
RESULT: 0.261

QUERY: Also check C28G G47A
RESULT: 0.763

QUERY: Also check A24T A36T
RESULT: 0.794

QUERY: Also check A39T G50C
RESULT: 0.0837

QUERY: Also check T25C C33A
RESULT: 0.77

QUERY: Also check T23C T32C
RESULT: 0.788

QUERY: Also check T32A A41G
RESULT: 0.808

QUERY: Also check T32C C42A
RESULT: 0.826

QUERY: Also check T29G T35G
RESULT: 0.813

QUERY: Also check A39G T43G
RESULT: 0.815

Provenance of the data: the supplement of paper PMC6755084
